Entries and their measured pIC50 follow.
Molecular target: T1, IL23R_huFC (human, UniProt Q5VWK5 24-353)
T1 sequence (looked up): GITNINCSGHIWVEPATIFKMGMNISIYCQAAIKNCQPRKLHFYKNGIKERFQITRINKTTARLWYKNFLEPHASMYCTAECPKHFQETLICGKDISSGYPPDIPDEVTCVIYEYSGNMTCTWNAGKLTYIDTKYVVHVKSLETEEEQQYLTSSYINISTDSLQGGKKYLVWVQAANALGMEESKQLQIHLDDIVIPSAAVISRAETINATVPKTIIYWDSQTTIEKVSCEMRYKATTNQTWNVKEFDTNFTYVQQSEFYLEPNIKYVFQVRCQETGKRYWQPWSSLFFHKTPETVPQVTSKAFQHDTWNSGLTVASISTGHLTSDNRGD
Experiment: IL23-IL23R competitive binding ELISA
pIC50: −log10 of the molar value. Bridges are numbered along the chain shown (N, C = ends). [ ]: non-standard residue; d: D form. 2Nal = N[C@@H](Cc1ccc2ccccc2c1)C(=O)O; AEF = NCCOc1ccc(C[C@H](N)C(=O)O)cc1; Pen = CC(C)(S)[C@H](N)C(=O)O; αMeK = C[C@](N)(CCCCN)C(=O)O
measurement label: pIC50

>>> experimental_result("XQTWQXYWXENG (Ac; Pen-Pen disulfide; α-MeOrn; NH2) [Ac-[Pen]-QTWQ-[Pen]-YW-[α-MeOrn]-ENG-NH2]")
"6.00 to 7.00"
>>> experimental_result("XQTWQXFXKENA (Ac; Pen-Pen disulfide; Phe[4-(2-aminoethoxy)]; 2-Nal; α-MeLys; NH2) [Ac-[Pen]-QTWQ-[Pen]-[Phe[4-(2-aminoethoxy)]-[2-Nal]-[α-MeLys]-ENA-NH2]")
"> 8.00"
>>> experimental_result("XQTWQXFXLQNN (Ac; Pen-Pen disulfide; Phe[4-(2-acetylaminoethoxy)]; 2-Nal; α-MeLeu; NH2) [Ac-[Pen]-QTWQ-[Pen]-[Phe[4-(2-acetylaminoethoxy)]-[2-Nal]-[α-MeLeu]-QNN-NH2]")
"> 8.00"
>>> experimental_result("XQTWQXFXKENG (Ac; Pen-Pen disulfide; Phe(4-OMe); 2-Nal; α-MeLys; NH2) [Ac-[Pen]-QTWQ-[Pen]-[Phe(4-OMe)]-[2-Nal]-[α-MeLys]-ENG-NH2]")
"7.00 to 7.60"
>>> experimental_result("XQTWQXFXKENA (Ac; Pen-Pen disulfide; Phe[4-(2-acetylaminoethoxy)]; 2-Nal; α-MeLys(Ac); NH2) [Ac-[Pen]-QTWQ-[Pen]-[Phe[4-(2-acetylaminoethoxy)]-[2-Nal]-[α-MeLys(Ac)]-ENA-NH2]")
"7.60 to 8.00"
>>> experimental_result("Ac-[Pen]STWQ[Pen][AEF][2Nal][αMeK]ENG-NH2 (disulfide 1-6 (inferred)) [Ac-[Pen]-STWQ-[Pen]-[Phe[4-(2-aminoethoxy)]-[2-Nal]-[α-MeLys]-ENG-NH2]")
"7.60 to 8.00"
>>> experimental_result("XQTWQXYWKKNG (Ac; Pen-Pen disulfide; α-MeLys; Lys(Ac); NH2) [Ac-[Pen]-QTWQ-[Pen]-YW-[α-MeLys]-[Lys(Ac)]-NG-NH2]")
"6.00 to 7.00"
